Data provenance is patent US10144706B2.

Recorded IC50 by entry
Target: PD-1/PD-L1 interaction (PD-1-Ig / PD-L1-His) (Homo sapiens)
Construct: hPDL1(18-239)-TVMV-His; TVMV protease site linker (C); made in house; host or cells: HEK293T
Sequence (Q9NZQ7 with tags, fused parts or gaps): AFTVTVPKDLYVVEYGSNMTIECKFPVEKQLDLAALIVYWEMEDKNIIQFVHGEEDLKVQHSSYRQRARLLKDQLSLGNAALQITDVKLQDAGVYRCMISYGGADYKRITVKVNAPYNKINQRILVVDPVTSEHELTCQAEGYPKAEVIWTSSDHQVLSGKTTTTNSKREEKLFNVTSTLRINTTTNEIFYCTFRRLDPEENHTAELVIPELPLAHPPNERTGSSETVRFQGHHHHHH
Assay: PD-1/PD-L1 Homogenous Time-Resolved Fluorescence (HTRF) binding assay
Details: IC50 range class; PD-L1-His 10 nM, PD-1-Ig 20 nM; read-out: Range or IC50
Description: The ability of the compounds of formula (I) to bind to PD-L1 was investigated using a PD-1/PD-L1 Homogenous Time-Resolved Fluorescence (HTRF) binding assay. Homogenous Time-Resolved Fluorescence (HTRF) Binding Assay. The interaction of PD-1 and PD-L1 can be assessed using soluble, purified preparations of the extracellular domains of the two proteins. […]

Use the examples below as a reference point.
Cc1c(COc2cc(OCc3ccc(-n4cccn4)nc3)c(CN[C@@](C)(CO)C(=O)O)cc2Cl)cccc1-c1cccc(COc2cc(OCc3ccc(-n4cccn4)nc3)c(CN[C@@](C)(CO)C(=O)O)cc2Cl)c1C [Example 5022]	0.04 to 20 nM
COc1ccc(CNCc2cc(Cl)c(OCc3cccc(-c4cccc(COc5cc(OCc6cncc(C#N)c6)c(CNCc6ccc(OC)cc6OC)cc5Cl)c4C)c3C)cc2OCc2cncc(C#N)c2)c(OC)c1 [Example 41230]	20.1 to 90 nM

Now look at this one.
# input compound: Cc1c(OCCCNCCO)cccc1-c1cccc(OCCCN2CC[C@@H](O)C2)c1C [Example 2014] ; wanted: its IC50
20.1 to 90 nM
